Tested on: ACHN renal
assay_text: NCI tumour cell line growth inhibition, 48 h; in the data active means GI50 below about 0.43 µM; inactive means the rest
Your reply should match one of these outcome classes. YES for active, NO for inactive

Hello, I am checking results. What call was entered for CCCC(=O)Oc1ccc(/C(=C(\C)c2ccc(Cl)cc2)c2ccc(OCCN(CC)CC)cc2)cc1 ?
NO

Hello, I am checking results. What call was entered for CN(C)S(=O)(=O)c1cccc(C(=O)Nc2nc(-c3ccc(F)c(F)c3)cs2)c1 ?
NO

---

System: SNB-19 CNS
assay_text: NCI tumour cell line growth inhibition, 48 h
metric: TGI

A selection of reference data follows.
>  <compound>
Cc1ccc(C(=O)Nc2ccc(S(=O)(=O)O)c3cc(S(=O)(=O)O)cc(S(=O)(=O)O)c23)cc1NC(=O)c1cccc(NC(=O)Nc2cccc(C(=O)Nc3cc(C(=O)Nc4ccc(S(=O)(=O)O)c5cc(S(=O)(=O)O)cc(S(=O)(=O)O)c45)ccc3C)c2)c1

>  <TGI>
> 100 µM

$$$$
>  <compound>
O=S1(=O)OCCOS(=O)(=O)C1(F)Cc1ccccc1

>  <TGI>
> 100 µM

$$$$

Attention now turns to another entry.
Fetch value of TGI on SNB-19 CNS for COc1ccc(C2CC(c3sc(Nc4ccc(C)cc4)nc3C)=NN2)cc1 (stereo not drawn) .
33.8 µM

---

Test system: NCI/ADR-RES ovarian
assay_text: NCI tumour cell line growth inhibition, 48 h; in the data active = GI50 below about 0.43 µM; inactive = the rest
Your reply should match one of these outcome classes. 1 (active), 0 (inactive)

Use the examples below as a reference point.
>  <record_smiles>
C[C@H]1C[C@@H](n2c(Nc3ccc(OC(F)(F)F)cc3)nc3cc(CCC(=O)O)ccc32)CC(C)(C)C1

>  <class>
0

$$$$
>  <record_smiles>
COc1ccc(/C=C\c2cc(OC)c(OC)c(OC)c2)cc1NC(=O)/C=C/c1ccc(OC)c(OC)c1

>  <class>
0

$$$$
>  <record_smiles>
CN(C)Cc1ccc(NC(=O)c2cncc(C#Cc3cnc(N)c4ncccc34)c2)cc1C(F)(F)F

>  <class>
0

$$$$
>  <record_smiles>
Nc1[nH]nc(Nc2ccccc2)c1-c1nc2ccccc2s1

>  <class>
0

$$$$
>  <record_smiles>
COc1ccc(C2=C(c3ccc(OC)cc3)C(=O)OC2)cc1

>  <class>
0

$$$$

Hello, I am checking results. What call was entered for COc1ccc(CCN2CCCn3c2nc2ccccc2c3=O)cc1 ?
1

Hello, I am checking results. What call was entered for CC(C)(C)OC(=O)NCCCCCCCCCn1c2c(c3ccccc3c1=O)C(=O)c1ccccc1-2 ?
0

Hello, I am checking results. What call was entered for CNC(=O)[C@H](Cc1c[nH]c2ccccc12)NC(=O)[C@@H](CC(=O)NO)CC(C)C ?
0

Hello, I am checking results. What call was entered for CN(C)S(=O)(=O)c1cccc(C(=O)Nc2nc(-c3ccc(F)c(F)c3)cs2)c1 ?
0

Hello, I am checking results. What call was entered for CN1CCN(C2=C(Cl)C(=O)c3ccccc3C2=O)CC1 ?
0

Hello, I am checking results. What call was entered for COc1cc(C[C@H]2COC(=O)[C@]2(O)Cc2ccc(OCc3ccccc3)c(OC)c2)ccc1OCc1ccccc1 ?
0

Hello, I am checking results. What call was entered for CNc1c2ccccc2nc2occ(Cl)c12 ?
0

---

Test system: HS 578T breast
assay_text: NCI tumour cell line growth inhibition, 48 h; in the data active = GI50 below about 0.43 µM; inactive = the rest
Your reply should match one of these outcome classes. true for active, false for inactive

Use the examples below as a reference point.
>  <compound>
CC(C)(C)OC(=O)N(CCCCN(CCCn1c2c(c3ccccc3c1=O)C(=O)c1ccccc1-2)C(=O)OC(C)(C)C)CCCn1c2c(c3ccccc3c1=O)C(=O)c1ccccc1-2

>  <class>
false

$$$$
>  <compound>
CN1CCN(C2=C(Cl)C(=O)c3ccccc3C2=O)CC1

>  <class>
false

$$$$
>  <compound>
CNc1c2ccccc2nc2occ(Cl)c12

>  <class>
false

$$$$
>  <compound>
CCN1C(=O)N(CC)C2C1NN=c1s/c(=C3\C(=O)Nc4ccccc43)c(=O)n12 (stereo not drawn)

>  <class>
true

$$$$
>  <compound>
O=[N+]([O-])c1ccc(Sc2cccc[n+]2[O-])c2nonc12

>  <class>
false

$$$$
>  <compound>
COc1ccc(-c2nc(NC(=O)CS(=O)(=O)c3ccc(F)cc3)sc2C)cc1

>  <class>
false

$$$$
>  <compound>
CCCC(=O)Oc1ccc(/C(=C(\C)c2ccc(Cl)cc2)c2ccc(OCCN(CC)CC)cc2)cc1

>  <class>
false

$$$$
>  <compound>
O=C1/C(=C/c2ccc(F)cc2)COc2ccc(O)c(O)c21

>  <class>
false

$$$$
>  <compound>
Nc1[nH]nc(Nc2ccccc2)c1-c1nc2ccccc2s1

>  <class>
false

$$$$
>  <compound>
COc1ccc(C2=Nn3c(nnc3-c3ccc(F)c(Cl)c3)SC2)cc1

>  <class>
false

$$$$

Hello, I am checking results. What call was entered for COc1cc(/C=C/C(=O)c2c(C)n([O-])c3ccccc3[n+]2=O)cc(OC)c1OC ?
false

Hello, I am checking results. What call was entered for COc1ccc(Cn2cc3c(c2-c2ccccc2)CCc2cnoc2-3)cc1 ?
true

Hello, I am checking results. What call was entered for CN(C)S(=O)(=O)c1cccc(C(=O)Nc2nc(-c3ccc(F)c(F)c3)cs2)c1 ?
false

---

System: SF-268 CNS
assay_text: NCI tumour cell line growth inhibition, 48 h
metric: TGI

Tell me measured TGI for CN(C)CCNC(=O)c1ccc2c(c1)oc1cc3ccccc3c(=O)n12 please.
31.7 µM

Tell me measured TGI for O=C1/C(=C/c2cccc([N+](=O)[O-])c2)N=C(c2ccccc2)N1c1nc2ccc(Sc3ccccc3)cc2[nH]1 please.
> 100 µM

Tell me measured TGI for O=[N+]([O-])c1ccc(Sc2cccc[n+]2[O-])c2nonc12 please.
21.1 µM

Tell me measured TGI for Cc1nc2c(Cl)cc(Cl)cc2c2c1CCO2 please.
> 100 µM

Tell me measured TGI for O=C(Nc1ccccc1C(=O)NCc1ccccc1)/C(=C/c1ccccc1O)NC(=O)c1ccccc1 please.
> 100 µM

Tell me measured TGI for CCCCn1c(=O)[nH]c2c(N)ncnc21 please.
> 100 µM

---

Test system: SNB-75 CNS
assay_text: NCI tumour cell line growth inhibition, 48 h; in the data active means GI50 below about 0.43 µM; inactive means the rest
Your reply should match one of these outcome classes. Y (active), N (inactive)

Use the examples below as a reference point.
>  <record_smiles>
O=[N+]([O-])c1ccc(Sc2cccc[n+]2[O-])c2nonc12

>  <system_name>
SNB-75 CNS

>  <class>
N

$$$$
>  <record_smiles>
N.N.N.N.N#N.N#N.[Cl-].[Os+6]

>  <system_name>
SNB-75 CNS

>  <class>
N

$$$$
>  <record_smiles>
O=C(O)CCCN1C(=O)/C(=C/C(Cl)=C/c2ccccc2)SC1=S

>  <system_name>
SNB-75 CNS

>  <class>
N

$$$$
>  <record_smiles>
COc1ccc(Cn2cc3c(c2-c2ccccc2)CCc2cnoc2-3)cc1

>  <system_name>
SNB-75 CNS

>  <class>
Y

$$$$

Hello, I am checking results. What call was entered for O=[N+]([O-])c1ccccc1/C=N\NC(=S)N/N=C/c1ccccc1[N+](=O)[O-] ?
N

Hello, I am checking results. What call was entered for CNC(=O)[C@H](Cc1c[nH]c2ccccc12)NC(=O)[C@@H](CC(=O)NO)CC(C)C ?
N

Hello, I am checking results. What call was entered for COc1ccc(C2=Nn3c(nnc3-c3ccc(F)c(Cl)c3)SC2)cc1 ?
N

Hello, I am checking results. What call was entered for CCCC(=O)Oc1ccc(/C(=C(\C)c2ccc(Cl)cc2)c2ccc(OCCN(CC)CC)cc2)cc1 ?
N

Hello, I am checking results. What call was entered for COc1ccc(C2=C(c3ccc(OC)cc3)C(=O)OC2)cc1 ?
N

Hello, I am checking results. What call was entered for OCc1c(-c2cccs2)oc(-c2cccs2)c1CO ?
N

---

In this section we review reported TGI values for a set of compounds.
Tested on: M19-MEL melanoma
assay_text: NCI tumour cell line growth inhibition, 48 h

>  <record_smiles>
CN(C)CCCNc1ccnc2c([N+](=O)[O-])cccc12

>  <TGI>
5.82 µM

$$$$
>  <record_smiles>
Cc1c(C)c2cc3c(=O)c(CCl)coc3c(C)c2oc1=O

>  <TGI>
> 100 µM

$$$$
>  <record_smiles>
COc1ccc2[nH]c3ccc4cc[n+](CCN5CCC(C6CCN(CC[n+]7ccc8ccc9[nH]c%10ccc(OC)cc%10c9c8c7)CC6)CC5)cc4c3c2c1

>  <TGI>
16.1 µM

$$$$
>  <record_smiles>
ClCCCN1CCN(CCCl)CC1

>  <TGI>
773 µM

$$$$
>  <record_smiles>
Cc1nc(-n2nc(-c3ccccc3)cc2-c2ccccc2)sc1C(=O)CC(=O)C(=O)Nc1ccc(Cl)c(Cl)c1

>  <TGI>
> 100 µM

$$$$
>  <record_smiles>
Cn1cc(-c2ccc3c4ccccc4n(C)c3c2)c2ccccc21

>  <TGI>
> 100 µM

$$$$

Tell me measured TGI for O=C(O)CCC(O)=C1S(=O)(=O)OCCOS1(=O)=O please.
> 100 µM

Tell me measured TGI for COc1ccc2c(=O)c(-c3cc(OC)c(OC)cc3OC)coc2c1 please.
> 100 µM

Tell me measured TGI for CC(C)(C)C1=CC(=N/N=c2\scc(-c3ccccc3)n2Cc2ccccc2)C=C(C(C)(C)C)C1=O please.
> 100 µM

Tell me measured TGI for CC(=O)CC[N+](C)(C)C please.
> 58.2 µM
